Origin of measurements: paper PMC7703752

Measured Kd, listed per entry.
test.target: T1, rat GIT1 (647-770) (rat, UniProt Q9Z272 647-770)
T1 chain: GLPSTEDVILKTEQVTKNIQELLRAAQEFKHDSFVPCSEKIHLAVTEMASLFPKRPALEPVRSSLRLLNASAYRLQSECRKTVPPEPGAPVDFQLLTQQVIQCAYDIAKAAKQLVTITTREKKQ
experiment.description: FP
Where no end group is shown, it is not given here.

binder	unit.abbreviation	Kd
ATDELDALLASLTENLID (also: N-terminal FITC-Ahx only in labelled form, predicted LD motif of human EPB41L5 (Band 4.1-like protein 5); also called E41L5; YMO1; source: synthetic peptide, bought: GenScript) [EPB41L5 (Band 4.1-like protein 5) LD motif peptide]	µM	83.6
EDVLDELLQYLGVT (also: N-terminal FITC-Ahx only in labelled form, predicted LD motif of human RALGAPA1; also called RGPA1; source: synthetic peptide, bought: GenScript) [RALGAPA1 LD motif peptide]	µM	88
